# maps each entry to its Hydrolysis
targetEntity: Phosphodiesterase 4 (Homo sapiens, UniProt P27815+Q08499+Q07343+Q08493)
condition: Oryctolagus cuniculus; Kidney
Description: Susceptibility to be hydrolysed by a partially purified cAMP phosphodiesterase from rabbit kidney

Solved cases below.
{"columns": ["molecule", "observedMeasurement"],
 "data": [
  ["O=P1(O)OC[C@H]2O[C@@H](n3cnc4c(NCc5ccccc5)ncnc43)[C@H](O)[C@@H]2O1", 0.3],
  ["O=P1(O)OC[C@H]2O[C@@H](n3cnc4c(SCc5ccccc5)ncnc43)[C@H](O)[C@@H]2O1", 0.54],
  ["Nc1ncnc2c1nc(Cl)n2[C@@H]1O[C@@H]2COP(=O)(O)O[C@H]2[C@H]1O [TOCLADESINE]", "< 0.05"],
  ["CC(C)CNc1ncnc2c1nc(Sc1ccc(Cl)cc1)n2[C@@H]1O[C@@H]2COP(=O)(O)O[C@H]2[C@H]1O", "< 0.05"],
  ["CCCCCNc1ncnc2c1nc(SCc1ccccc1)n2[C@@H]1O[C@@H]2COP(=O)(O)O[C@H]2[C@H]1O", "< 0.05"],
  ["CCCCN(C)c1ncnc2c1nc(SCc1ccccc1)n2[C@@H]1O[C@@H]2COP(=O)(O)O[C@H]2[C@H]1O", "< 0.05"]
]}

// Hydrolysis lookup, key: `Nc1ncnc2c1nc(SCC(=O)[O-])n2[C@@H]1O[C@@H]2COP(=O)(O)O[C@H]2[C@H]1O.[Na+]` < 0.05

// Hydrolysis lookup, key: `Cc1ccc(CSc2nc3c(N)ncnc3n2[C@@H]2O[C@@H]3COP(=O)(O)O[C@H]3[C@H]2O)cc1` < 0.05

* * *

targetEntity: Phosphodiesterase 4 (Homo sapiens, UniProt P27815+Q08499+Q07343+Q08493)
condition: Oryctolagus cuniculus; Kidney
outcomeMeasure: Hydrolysis

Solved cases below.
{"columns": ["querySmiles", "observedMeasurement"],
 "data": [
  ["Nc1ncnc2c1nc(Sc1ccc(Br)cc1)n2[C@@H]1O[C@@H]2COP(=O)(O)O[C@H]2[C@H]1O", "< 0.05"],
  ["O=P1(O)OC[C@H]2O[C@@H](n3c(SCc4ccccc4)nc4c(NCc5ccccc5)ncnc43)[C@H](O)[C@@H]2O1", "< 0.05"],
  ["CCN(CC)c1ncnc2c1nc(SCc1ccccc1)n2[C@@H]1O[C@@H]2COP(=O)(O)O[C@H]2[C@H]1O", "< 0.05"],
  ["Nc1ncnc2c1nc(SCc1ccc(Cl)cc1)n2[C@@H]1O[C@@H]2COP(=O)(O)O[C@H]2[C@H]1O", "< 0.05"],
  ["Nc1ncnc2c1nc(SCCO)n2[C@@H]1O[C@@H]2COP(=O)(O)O[C@H]2[C@H]1O", "< 0.05"]
]}

// Hydrolysis lookup, key: `CSc1ncnc2c1nc(SC)n2[C@@H]1O[C@@H]2COP(=O)(O)O[C@H]2[C@H]1O` < 0.05

* * *

experiment: Inhibition of cAMP phosphodiesterase preparation from rabbit lung at a substrate concentration of 0.14 uM
outcomeMeasure: I50 (µM)

a: O=P1(O)OC[C@H]2O[C@@H](n3cnc4c(Cl)ncnc43)[C@H](O)[C@@H]2O1
b: Cc1ccc(CSc2nc3c(N)ncnc3n2[C@@H]2O[C@@H]3COP(=O)(O)O[C@H]3[C@H]2O)cc1
c: O=P1(O)OC[C@H]2O[C@@H](n3c(Br)nc4c(NCc5ccccc5)ncnc43)[C@H](O)[C@@H]2O1
d: Nc1ncnc2c1nc(O)n2[C@@H]1O[C@@H]2COP(=O)(O)O[C@H]2[C@H]1O
e: CCNc1ncnc2c1nc(SCc1ccccc1)n2[C@@H]1O[C@@H]2COP(=O)(O)O[C@H]2[C@H]1O
Descending by I50 please, for everything listed above. Returns: the labels arranged in the requested order. d, c, a, b, e

* * *

experiment: Inhibition of cAMP phosphodiesterase preparation from rabbit lung at a substrate concentration of 0.14 uM
outcomeMeasure: I50 (µM)

{"columns": ["querySmiles", "I50, µM"],
 "data": [
  ["O=P1(O)OC[C@H]2O[C@@H](n3cnc4c(=S)[nH]cnc43)[C@H](O)[C@@H]2O1", 53]
]}

A: CCSc1nc2c(N)ncnc2n1[C@@H]1O[C@@H]2COP(=O)(O)O[C@H]2[C@H]1O
B: CC(C)Sc1nc2c(N)ncnc2n1[C@@H]1O[C@@H]2COP(=O)(O)O[C@H]2[C@H]1O
Hi, I'm comparing two records. Which one has the lower I50, A or B ? Indicate your choice by writing its label. A
(A: 33 µM, B: 56 µM)

* * *

experiment: Inhibition of cAMP phosphodiesterase preparation from rabbit lung at a substrate concentration of 0.14 uM
outcomeMeasure: I50 (µM)

{"columns": ["querySmiles", "I50 [µM]"],
 "data": [
  ["CNc1ncnc2c1ncn2[C@@H]1O[C@@H]2COP(=O)(O)O[C@H]2[C@H]1O", 50],
  ["Cc1ccccc1CSc1nc2c(N)ncnc2n1[C@@H]1O[C@@H]2COP(=O)(O)O[C@H]2[C@H]1O", 33],
  ["CCCCCNc1ncnc2c1nc(SCc1ccccc1)n2[C@@H]1O[C@@H]2COP(=O)(O)O[C@H]2[C@H]1O", 16]
]}

I: CCCCNc1ncnc2c1nc(SCc1ccccc1)n2[C@@H]1O[C@@H]2COP(=O)(O)O[C@H]2[C@H]1O
II: Nc1ncnc2c1nc(SCc1ccc(F)cc1)n2[C@@H]1O[C@@H]2COP(=O)(O)O[C@H]2[C@H]1O
III: CSc1ncnc2c1ncn2[C@@H]1O[C@@H]2COP(=O)(O)O[C@H]2[C@H]1O
IV: Nc1nc2c(Cl)ncnc2n1[C@@H]1O[C@@H]2COP(=O)(O)O[C@H]2[C@H]1O
Arrange the 4 molecules from largest to smallest I50. Returns: the labels arranged in the requested order. IV, III, II, I

* * *

targetEntity: Phosphodiesterase 4 (Homo sapiens, UniProt P27815+Q08499+Q07343+Q08493)
condition: Oryctolagus cuniculus; Kidney
# maps each entry to its Hydrolysis

{"columns": ["querySmiles", "Hydrolysis"],
 "data": [
  ["O=P1(O)OC[C@H]2O[C@@H](n3cnc4c(Cl)ncnc43)[C@H](O)[C@@H]2O1", 1.2]
]}

// Hydrolysis lookup, key: `CCCCCCNc1ncnc2c1nc(SCc1ccccc1)n2[C@@H]1O[C@@H]2COP(=O)(O)O[C@H]2[C@H]1O` < 0.05

// Hydrolysis lookup, key: `O=P1(O)OC[C@H]2O[C@@H](n3c(SCc4ccccc4)nc4c(SCc5ccccc5)ncnc43)[C@H](O)[C@@H]2O1` < 0.05

// Hydrolysis lookup, key: `COc1ccc(Sc2nc3c(N)ncnc3n2[C@@H]2O[C@@H]3COP(=O)(O)O[C@H]3[C@H]2O)cc1` < 0.05

// Hydrolysis lookup, key: `O=c1[nH]c2c(Cl)ncnc2n1[C@@H]1O[C@@H]2COP(=O)(O)O[C@H]2[C@H]1O` < 0.05

// Hydrolysis lookup, key: `O=P1(O)OC[C@H]2O[C@@H](n3c(SCc4ccccc4)nc4c(N5CCCCC5)ncnc43)[C@H](O)[C@@H]2O1` < 0.05

* * *

experiment: Inhibition of cAMP phosphodiesterase preparation from rabbit lung at a substrate concentration of 0.14 uM
outcomeMeasure: I50 (µM)

P: CSc1nc2c(NCc3ccccc3)ncnc2n1[C@@H]1O[C@@H]2COP(=O)(O)O[C@H]2[C@H]1O
Q: CCCCNc1ncnc2c1nc(SC)n2[C@@H]1O[C@@H]2COP(=O)(O)O[C@H]2[C@H]1O
R: CCCCSc1nc2c(N)ncnc2n1[C@@H]1O[C@@H]2COP(=O)(O)O[C@H]2[C@H]1O
Descending by I50 please, for everything listed above. Returns: the labels arranged in the requested order. Q, R, P

* * *

targetEntity: Phosphodiesterase 4 (Homo sapiens, UniProt P27815+Q08499+Q07343+Q08493)
condition: Oryctolagus cuniculus; Kidney
outcomeMeasure: Hydrolysis

Solved cases below.
{"columns": ["querySmiles", "targetEntity", "Hydrolysis"],
 "data": [
  ["Nc1ncnc2c1nc(SCc1ccc([N+](=O)[O-])cc1)n2[C@@H]1O[C@@H]2COP(=O)(O)O[C@H]2[C@H]1O", "Phosphodiesterase 4 (Homo sapiens, UniProt P27815+Q08499+Q07343+Q08493)", "< 0.05"],
  ["Cc1ccccc1CSc1nc2c(N)ncnc2n1[C@@H]1O[C@@H]2COP(=O)(O)O[C@H]2[C@H]1O", "Phosphodiesterase 4 (Homo sapiens, UniProt P27815+Q08499+Q07343+Q08493)", "< 0.05"],
  ["CCCSc1nc2c(N)ncnc2n1[C@@H]1O[C@@H]2COP(=O)(O)O[C@H]2[C@H]1O", "Phosphodiesterase 4 (Homo sapiens, UniProt P27815+Q08499+Q07343+Q08493)", "< 0.05"],
  ["Nc1nc2c(=S)[nH]cnc2n1[C@@H]1O[C@@H]2COP(=O)(O)O[C@H]2[C@H]1O", "Phosphodiesterase 4 (Homo sapiens, UniProt P27815+Q08499+Q07343+Q08493)", 0.3],
  ["CCNc1ncnc2c1nc(SCc1ccccc1)n2[C@@H]1O[C@@H]2COP(=O)(O)O[C@H]2[C@H]1O", "Phosphodiesterase 4 (Homo sapiens, UniProt P27815+Q08499+Q07343+Q08493)", "< 0.05"]
]}

Form: Entry = `O=P1(O)OC[C@H]2O[C@@H](n3c(Br)nc4c(NCc5ccccc5)ncnc43)[C@H](O)[C@@H]2O1` | System = Phosphodiesterase 4 (Homo sapiens, UniProt P27815+Q08499+Q07343+Q08493) | Hydrolysis = ____ < 0.05

Form: Entry = `CCCN(CCC)c1ncnc2c1nc(SCc1ccccc1)n2[C@@H]1O[C@@H]2COP(=O)(O)O[C@H]2[C@H]1O` | System = Phosphodiesterase 4 (Homo sapiens, UniProt P27815+Q08499+Q07343+Q08493) | Hydrolysis = ____ < 0.05

Form: Entry = `CSc1nc2c(NCc3ccccc3)ncnc2n1[C@@H]1O[C@@H]2COP(=O)(O)O[C@H]2[C@H]1O` | System = Phosphodiesterase 4 (Homo sapiens, UniProt P27815+Q08499+Q07343+Q08493) | Hydrolysis = ____ 0.19

Form: Entry = `O=P1(O)OC[C@H]2O[C@@H](n3c(SCc4ccccc4)nc4c(N5CCCC5)ncnc43)[C@H](O)[C@@H]2O1` | System = Phosphodiesterase 4 (Homo sapiens, UniProt P27815+Q08499+Q07343+Q08493) | Hydrolysis = ____ < 0.05

Form: Entry = `O=P1(O)OC[C@H]2O[C@@H](n3cnc4c(=S)[nH]cnc43)[C@H](O)[C@@H]2O1` | System = Phosphodiesterase 4 (Homo sapiens, UniProt P27815+Q08499+Q07343+Q08493) | Hydrolysis = ____ 1.1

Form: Entry = `CCSc1nc2c(N)ncnc2n1[C@@H]1O[C@@H]2COP(=O)(O)O[C@H]2[C@H]1O` | System = Phosphodiesterase 4 (Homo sapiens, UniProt P27815+Q08499+Q07343+Q08493) | Hydrolysis = ____ < 0.05

Form: Entry = `Nc1ncnc2c1nc(Br)n2[C@@H]1O[C@@H]2COP(=O)(O)O[C@H]2[C@H]1O` | System = Phosphodiesterase 4 (Homo sapiens, UniProt P27815+Q08499+Q07343+Q08493) | Hydrolysis = ____ < 0.05

Form: Entry = `CCN(CC)c1ncnc2c1nc(N(CC)CC)n2[C@@H]1O[C@@H]2COP(=O)(O)O[C@H]2[C@H]1O` | System = Phosphodiesterase 4 (Homo sapiens, UniProt P27815+Q08499+Q07343+Q08493) | Hydrolysis = ____ < 0.05

Form: Entry = `CSc1nc2c(N)ncnc2n1[C@@H]1O[C@@H]2COP(=O)(O)O[C@H]2[C@H]1O` | System = Phosphodiesterase 4 (Homo sapiens, UniProt P27815+Q08499+Q07343+Q08493) | Hydrolysis = ____ < 0.05

Form: Entry = `Nc1ncnc2c1nc(SCc1cccc([N+](=O)[O-])c1)n2[C@@H]1O[C@@H]2COP(=O)(O)O[C@H]2[C@H]1O` | System = Phosphodiesterase 4 (Homo sapiens, UniProt P27815+Q08499+Q07343+Q08493) | Hydrolysis = ____ < 0.05

Form: Entry = `CNc1ncnc2c1ncn2[C@@H]1O[C@@H]2COP(=O)(O)O[C@H]2[C@H]1O` | System = Phosphodiesterase 4 (Homo sapiens, UniProt P27815+Q08499+Q07343+Q08493) | Hydrolysis = ____ 0.22

Form: Entry = `Nc1ncnc2c1nc(N)n2[C@@H]1O[C@@H]2COP(=O)(O)O[C@H]2[C@H]1O` | System = Phosphodiesterase 4 (Homo sapiens, UniProt P27815+Q08499+Q07343+Q08493) | Hydrolysis = ____ 0.8

Form: Entry = `Nc1nc2c(Cl)ncnc2n1[C@@H]1O[C@@H]2COP(=O)(O)O[C@H]2[C@H]1O` | System = Phosphodiesterase 4 (Homo sapiens, UniProt P27815+Q08499+Q07343+Q08493) | Hydrolysis = ____ 0.74

Form: Entry = `CCN(CC)c1nc2c(Cl)ncnc2n1[C@@H]1O[C@@H]2COP(=O)(O)O[C@H]2[C@H]1O` | System = Phosphodiesterase 4 (Homo sapiens, UniProt P27815+Q08499+Q07343+Q08493) | Hydrolysis = ____ 0.1

Form: Entry = `COc1ccc(CSc2nc3c(N)ncnc3n2[C@@H]2O[C@@H]3COP(=O)(O)O[C@H]3[C@H]2O)cc1` | System = Phosphodiesterase 4 (Homo sapiens, UniProt P27815+Q08499+Q07343+Q08493) | Hydrolysis = ____ < 0.05

Form: Entry = `CCN(CC)c1ncnc2c1nc(Sc1ccc(Cl)cc1)n2[C@@H]1O[C@@H]2COP(=O)(O)O[C@H]2[C@H]1O` | System = Phosphodiesterase 4 (Homo sapiens, UniProt P27815+Q08499+Q07343+Q08493) | Hydrolysis = ____ < 0.05
